Measured values drawn from patent US20210347873A1 for this set.

Biological target: extracellular domain of human BLyS protein (hBLyS-ECD), His-tagged, Ala134-Leu285 (human, UniProt Q9Y275 134-285)
Sequence (Q9Y275 134-285): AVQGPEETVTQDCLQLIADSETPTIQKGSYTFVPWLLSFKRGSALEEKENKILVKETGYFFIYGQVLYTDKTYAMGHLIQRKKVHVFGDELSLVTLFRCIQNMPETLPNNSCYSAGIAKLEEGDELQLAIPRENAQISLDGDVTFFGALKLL
Assay: cell-based or functional assay
The binders listed here are annotated with their OD450 nm (as headed), mouse B lymphocyte proliferation; antibody 0.032 nM.

Worked set:
| binder | reported.measurement |
| --- | --- |
| c67A2E1D10 (antibody, V domains shown) VH: EVQLQQSGAELVKPGASVKLSCTASGFNIKNYYMHWVKQRTEEGLEWIGRIDPEDGETKYAPKFQAKATITADTSSNTAYLQLSSLTSEDTAVYFCARKGYYGNYGAWFAYWGQGTLVTVSA VL: DIQMTQSPASLSVSVGETVTITCRASEDLYSNLAWYQQKQGKSPQLLVYAATFLADGVPSRFSGSGSGTQYSLKINSLQSEDFGNYYCQHFWGTPPTFGGGTKLEIK | 4340 |
| c8E7D9C7F5 (antibody, V domains shown, also called chimeric antibody c8E7D9C7F5) VH: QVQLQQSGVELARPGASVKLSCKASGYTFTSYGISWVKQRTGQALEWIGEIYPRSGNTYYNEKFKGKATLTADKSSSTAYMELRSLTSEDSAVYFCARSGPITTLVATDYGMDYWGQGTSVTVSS VL: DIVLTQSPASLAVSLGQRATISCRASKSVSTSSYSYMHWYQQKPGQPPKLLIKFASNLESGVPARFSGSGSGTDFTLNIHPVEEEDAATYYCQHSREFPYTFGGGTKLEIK | 4620 |
| c97A3C2H4 (antibody, V domains shown, also called chimeric antibody c97A3C2H4) VH: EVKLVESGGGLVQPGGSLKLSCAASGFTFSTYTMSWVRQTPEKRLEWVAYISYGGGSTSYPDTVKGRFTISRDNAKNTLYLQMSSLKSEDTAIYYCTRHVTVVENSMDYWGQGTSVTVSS VL: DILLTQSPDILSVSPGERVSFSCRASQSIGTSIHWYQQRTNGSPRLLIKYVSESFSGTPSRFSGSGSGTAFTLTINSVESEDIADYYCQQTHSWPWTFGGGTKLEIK | 4450 |

Exercise: Reported OD450 nm (as headed), mouse B lymphocyte proliferation; antibody 0.032 nM, binder c93C6F10D3 (antibody, V domains shown) VH: EVQLVESGGGLVTPGGSLKLSCVASGFAFSTYGMSWVRQTPERRLEWVAYISGGGGSIYYPDSVKGRFTISRDNAKNILYLQMSSLKSEDTAMYHCTRHPDLLLRYDYALDHWGQGTSVTVSS VL: DIQMTQSPASLSASVGETVTITCRASENIHIYLAWYQQKQGKSPQLLVYNGKTLADGVPSRFSGSGSGTQYSLKINTLQPEDFGNYYCQHFWNSTWTFGGGTKLEIK : ____
Key: 4520
